Values compiled from patent US10759749B2.

- Target Entity: KATP channel (human SUR1 and human Kir6.2 reconstituted in COS-1 cells) (Homo sapiens)
- Sequence (Q09428 whole entry): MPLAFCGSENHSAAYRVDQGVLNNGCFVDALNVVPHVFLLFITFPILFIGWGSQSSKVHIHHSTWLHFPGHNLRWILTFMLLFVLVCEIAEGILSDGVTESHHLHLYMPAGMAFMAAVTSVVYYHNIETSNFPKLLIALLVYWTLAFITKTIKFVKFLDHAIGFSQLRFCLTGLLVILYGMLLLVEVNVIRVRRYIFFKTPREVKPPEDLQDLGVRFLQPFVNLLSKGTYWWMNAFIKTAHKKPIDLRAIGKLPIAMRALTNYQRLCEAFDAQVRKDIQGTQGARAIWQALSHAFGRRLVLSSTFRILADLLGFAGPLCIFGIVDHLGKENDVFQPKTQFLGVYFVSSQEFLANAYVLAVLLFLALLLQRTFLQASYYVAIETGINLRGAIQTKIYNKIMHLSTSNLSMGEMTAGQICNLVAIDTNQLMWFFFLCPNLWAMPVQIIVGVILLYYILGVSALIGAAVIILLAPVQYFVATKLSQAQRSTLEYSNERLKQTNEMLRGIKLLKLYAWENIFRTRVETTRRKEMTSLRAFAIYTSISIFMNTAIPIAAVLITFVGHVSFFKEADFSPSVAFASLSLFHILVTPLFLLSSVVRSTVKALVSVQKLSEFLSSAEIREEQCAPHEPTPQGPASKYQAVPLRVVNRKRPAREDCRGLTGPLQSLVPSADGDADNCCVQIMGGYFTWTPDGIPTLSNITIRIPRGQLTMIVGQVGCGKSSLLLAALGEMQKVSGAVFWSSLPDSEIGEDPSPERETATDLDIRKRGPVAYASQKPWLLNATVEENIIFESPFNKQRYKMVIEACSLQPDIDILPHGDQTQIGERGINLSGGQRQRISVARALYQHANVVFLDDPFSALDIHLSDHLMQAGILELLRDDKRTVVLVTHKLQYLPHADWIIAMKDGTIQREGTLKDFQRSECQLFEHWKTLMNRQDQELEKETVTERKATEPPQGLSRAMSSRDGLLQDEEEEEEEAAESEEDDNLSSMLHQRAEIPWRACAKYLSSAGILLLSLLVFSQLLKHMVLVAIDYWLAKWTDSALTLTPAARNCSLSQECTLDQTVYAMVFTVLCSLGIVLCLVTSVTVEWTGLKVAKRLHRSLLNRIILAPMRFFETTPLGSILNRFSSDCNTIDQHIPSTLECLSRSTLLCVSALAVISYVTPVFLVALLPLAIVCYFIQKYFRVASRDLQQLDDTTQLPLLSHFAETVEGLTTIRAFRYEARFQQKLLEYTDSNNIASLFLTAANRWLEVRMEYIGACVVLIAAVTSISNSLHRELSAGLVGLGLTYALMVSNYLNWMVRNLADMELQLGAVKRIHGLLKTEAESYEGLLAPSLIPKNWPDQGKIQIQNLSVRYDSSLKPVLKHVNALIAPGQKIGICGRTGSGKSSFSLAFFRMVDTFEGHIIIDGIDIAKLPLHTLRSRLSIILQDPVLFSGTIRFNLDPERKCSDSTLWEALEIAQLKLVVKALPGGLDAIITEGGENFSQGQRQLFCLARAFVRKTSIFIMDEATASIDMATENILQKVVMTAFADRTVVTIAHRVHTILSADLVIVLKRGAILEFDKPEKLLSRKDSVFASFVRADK
- Sequence (Q14654 whole entry partner): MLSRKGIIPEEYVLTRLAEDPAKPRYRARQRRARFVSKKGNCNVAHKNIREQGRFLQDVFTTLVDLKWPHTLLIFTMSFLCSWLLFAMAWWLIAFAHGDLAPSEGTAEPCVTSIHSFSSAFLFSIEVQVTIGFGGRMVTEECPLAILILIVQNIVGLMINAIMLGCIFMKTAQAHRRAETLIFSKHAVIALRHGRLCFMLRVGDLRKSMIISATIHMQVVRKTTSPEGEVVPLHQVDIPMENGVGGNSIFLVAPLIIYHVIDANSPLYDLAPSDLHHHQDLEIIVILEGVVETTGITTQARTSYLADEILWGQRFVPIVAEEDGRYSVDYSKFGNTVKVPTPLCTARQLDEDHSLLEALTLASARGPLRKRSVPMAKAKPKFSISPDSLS
- Assay Procedure: Electrophysiological test using KATP channel expressing COS-1 cells
- Condition Parameters: 300 μM diazoxide; read-out: IC50 of inhibition of polarization of COS-1 cell membrane via KATP channel induced by diazoxide
Measured Attribute: IC50

State its IC50 for this compound: O=C(O)[C@H]1CC[C@@H](NC(=S)NN(c2ccccc2)c2ccccc2)CC1 [DSC108] 2.3 µM

###

- Assay Procedure: Measurement of blood concentration after oral administration
- Condition Parameters: male, C57BL/6JJc1, mouse, plasma, po, 30 mg/kg
Measured Attribute: concentration at 120 min

State its concentration at 120 min for this compound: Cc1ccc(S(=O)(=O)NC(=O)NN2CC3CCCC3C2)cc1 (stereo not shown) [Glyclazide, gliclazide] 75 µM
